Provenance of the data: patent US20210246166A1

assayed.system: T1, recombinant human MASP1 active protease (amino acids 297-699, C-terminal His Tag) (human, UniProt P48740 297-699)
T1 sequence: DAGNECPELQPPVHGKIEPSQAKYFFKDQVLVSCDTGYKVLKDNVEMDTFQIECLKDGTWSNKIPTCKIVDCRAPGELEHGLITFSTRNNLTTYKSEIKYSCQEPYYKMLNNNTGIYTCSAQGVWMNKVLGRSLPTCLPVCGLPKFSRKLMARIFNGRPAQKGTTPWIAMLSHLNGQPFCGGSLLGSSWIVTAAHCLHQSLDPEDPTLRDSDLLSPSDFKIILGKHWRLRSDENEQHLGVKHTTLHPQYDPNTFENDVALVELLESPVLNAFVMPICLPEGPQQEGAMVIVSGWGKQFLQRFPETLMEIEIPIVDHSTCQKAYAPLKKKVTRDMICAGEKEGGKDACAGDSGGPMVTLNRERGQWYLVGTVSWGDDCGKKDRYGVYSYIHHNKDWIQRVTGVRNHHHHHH
assay.text: cell-based or functional assay
Bridge positions count the residues as written; N and C are the ends. Square brackets hold non-standard residues; d marks the D form. Ends that are not written are not given here. tBuAla = CC(C)(C)C[C@H](N)C(=O)O; Pen = CC(C)(S)[C@H](N)C(=O)O
property: human MASP1 IC50 (nM)
A number alone suffices; assume nM.

// sample LICSRS[tBuAla]PPI[Pen]IPD-NH2 (disulfide 3-11; N-terminus assumed; SMILES CC[C@H](C)[C@H](NC(=O)[C@@H](N)CC(C)C)C(=O)N[C@H]1CSSC(C)(C)[C@@H](C(=O)N[C@H](C(=O)N2CCC[C@H]2C(=O)N[C@@H](CC(=O)O)C(N)=O)[C@@H](C)CC)NC(=O)[C@H]([C@@H](C)CC)NC(=O)[C@@H]2CCCN2C(=O)[C@@H]2CCCN2C(=O)[C@H](CC(C)(C)C)NC(=O)[C@H](CO)NC(=O)[C@H](CCCNC(=N)N)NC(=O)[C@H](CO)NC1=O) [LIC+SRS-((tBu)A)-PPI-(Pen)+IPD-NH2] , its human MASP1 IC50 was 2.2
